biological target: PfcProRS (Plasmodium falciparum, UniProt Q8I5R7); construct: made in house; host or cells: SoluBL-21 E. coli; test: biochemical; assay type: binding; details: KD, PfcProRS of alternative tracer, tracer binding, conditions not stated
Sequence (Q8I5R7 249-746): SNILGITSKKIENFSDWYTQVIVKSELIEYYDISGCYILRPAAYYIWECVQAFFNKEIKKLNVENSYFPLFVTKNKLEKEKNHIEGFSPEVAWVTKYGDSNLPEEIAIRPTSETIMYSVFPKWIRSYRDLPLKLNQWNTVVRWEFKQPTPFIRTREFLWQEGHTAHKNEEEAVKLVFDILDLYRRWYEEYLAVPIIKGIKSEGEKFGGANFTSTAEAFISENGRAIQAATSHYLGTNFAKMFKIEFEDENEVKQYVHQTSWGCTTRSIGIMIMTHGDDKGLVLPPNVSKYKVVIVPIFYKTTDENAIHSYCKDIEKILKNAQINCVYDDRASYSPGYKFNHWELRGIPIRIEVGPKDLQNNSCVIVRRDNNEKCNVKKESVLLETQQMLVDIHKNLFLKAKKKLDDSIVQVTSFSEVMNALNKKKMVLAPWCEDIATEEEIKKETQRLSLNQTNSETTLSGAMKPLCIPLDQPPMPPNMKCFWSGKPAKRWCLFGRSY

molecularString	Kd [nM]
O=C(CCCCCNC(=S)Nc1ccc(-c2c3ccc(=O)cc-3oc3cc(O)ccc23)c(C(=O)O)c1)NCCCCCC(=O)NC1CCN(C(=O)Nc2nccnc2C(=O)NC2Cc3ccccc3C2)CC1	1280

----------
target: HscPheRS (human cytoplasmic phenylalanyl-tRNA synthetase) (Homo sapiens, UniProt Q9Y285)
Sequence (Q9Y285 whole entry): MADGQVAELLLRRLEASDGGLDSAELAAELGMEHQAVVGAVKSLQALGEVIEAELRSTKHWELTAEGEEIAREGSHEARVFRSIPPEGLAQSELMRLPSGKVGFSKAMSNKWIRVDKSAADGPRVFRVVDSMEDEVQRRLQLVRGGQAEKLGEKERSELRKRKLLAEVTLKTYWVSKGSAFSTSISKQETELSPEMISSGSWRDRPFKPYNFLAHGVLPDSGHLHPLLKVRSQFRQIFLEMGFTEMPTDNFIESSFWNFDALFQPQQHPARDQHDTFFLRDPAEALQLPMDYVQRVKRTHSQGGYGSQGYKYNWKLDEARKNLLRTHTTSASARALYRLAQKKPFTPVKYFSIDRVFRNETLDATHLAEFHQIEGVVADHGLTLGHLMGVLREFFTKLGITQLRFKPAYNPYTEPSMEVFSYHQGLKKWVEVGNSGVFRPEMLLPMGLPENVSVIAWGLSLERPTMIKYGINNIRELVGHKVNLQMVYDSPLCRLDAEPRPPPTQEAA
Sequence (Q9NSD9 whole entry partner): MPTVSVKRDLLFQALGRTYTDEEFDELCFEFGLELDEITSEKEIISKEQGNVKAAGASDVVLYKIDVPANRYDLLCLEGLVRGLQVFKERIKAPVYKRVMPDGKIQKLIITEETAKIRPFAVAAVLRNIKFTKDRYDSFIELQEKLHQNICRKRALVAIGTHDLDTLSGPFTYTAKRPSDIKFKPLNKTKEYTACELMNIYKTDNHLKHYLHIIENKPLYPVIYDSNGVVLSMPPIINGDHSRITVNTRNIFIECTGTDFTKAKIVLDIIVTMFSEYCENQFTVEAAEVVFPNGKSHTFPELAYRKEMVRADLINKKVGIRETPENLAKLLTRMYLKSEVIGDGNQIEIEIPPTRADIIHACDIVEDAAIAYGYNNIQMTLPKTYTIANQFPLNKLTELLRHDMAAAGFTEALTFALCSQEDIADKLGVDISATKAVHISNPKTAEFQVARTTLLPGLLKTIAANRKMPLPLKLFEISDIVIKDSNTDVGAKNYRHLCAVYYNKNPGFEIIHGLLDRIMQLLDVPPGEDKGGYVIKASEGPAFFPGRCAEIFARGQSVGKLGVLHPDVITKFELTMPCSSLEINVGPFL
pIC50: −log10 of the molar value.
property: pIC50

molecularString	measuredResult
Nc1ncnc2c1ncn2[C@@H]1O[C@H](CNS(=O)(=O)NC(=O)[C@@H](N)Cc2ccccc2)[C@@H](O)[C@H]1O	6.85

----------
molecular target: WT Keap1 (tag-free, full-length) (Homo sapiens); assay: biochemical
Sequence (Q14145 whole entry): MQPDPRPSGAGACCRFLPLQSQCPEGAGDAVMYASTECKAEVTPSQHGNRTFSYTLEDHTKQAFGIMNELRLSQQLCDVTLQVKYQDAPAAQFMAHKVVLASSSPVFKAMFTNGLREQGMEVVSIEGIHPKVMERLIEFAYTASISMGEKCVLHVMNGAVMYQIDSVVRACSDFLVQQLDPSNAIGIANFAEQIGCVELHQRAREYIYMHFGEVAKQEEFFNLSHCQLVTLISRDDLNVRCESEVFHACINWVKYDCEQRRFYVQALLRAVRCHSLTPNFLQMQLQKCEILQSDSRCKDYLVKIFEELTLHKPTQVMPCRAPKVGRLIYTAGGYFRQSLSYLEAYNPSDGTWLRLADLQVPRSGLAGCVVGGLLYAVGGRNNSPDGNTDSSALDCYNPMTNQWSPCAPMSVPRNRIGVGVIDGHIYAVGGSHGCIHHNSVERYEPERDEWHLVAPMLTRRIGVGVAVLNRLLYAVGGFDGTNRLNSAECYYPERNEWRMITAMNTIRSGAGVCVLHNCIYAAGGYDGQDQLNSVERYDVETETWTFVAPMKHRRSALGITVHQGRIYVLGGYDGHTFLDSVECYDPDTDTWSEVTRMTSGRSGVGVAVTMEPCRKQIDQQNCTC
pKd: −log10 of the molar value. Structures can show the parent of a compound that is named as a salt.
Each entry below carries its reported pKd.

compound	pKd
COC(=O)[C@]12CCC(C)(C)C[C@H]1[C@H]1C(=O)C=C3[C@@]4(C)C=C(C#N)C(=O)C(C)(C)[C@@H]4CC[C@@]3(C)[C@]1(C)CC2	7.89
CC1(C)CC[C@]2(C(=O)NCCCOCCOCCOCCCNC(=S)Nc3ccc(-c4c5ccc(=O)cc-5oc5cc(O)ccc45)c(C(=O)O)c3)CC[C@]3(C)[C@H](C(=O)C=C4[C@@]5(C)C=C(C#N)C(=O)C(C)(C)[C@@H]5CC[C@]43C)[C@@H]2C1	6.79
COC(=O)/C=C/C(=O)OC [DMF, dimethyl fumarate]	4.17
Cc1sc2c(c1C)C(c1ccc(Cl)cc1)=NC(CC(=O)NCCCOCCOCCOCCCNC(=O)[C@]13CCC(C)(C)C[C@H]1[C@H]1C(=O)C=C4[C@@]5(C)C=C(C#N)C(=O)C(C)(C)[C@@H]5CC[C@@]4(C)[C@]1(C)CC3)c1nnc(C)n1-2 (stereo partly shown)	5.75

----------
target: HsProRS (Homo sapiens); construct: made in house; host or cells: SoluBL-21 E. coli; test: TR-FRET ProRS ligand displacement / saturation binding assay, HsProRS; details: read-out: HsProRS KD of proline; competition with MAT379

molecularString	Kd [µM]
O=C(O)[C@@H]1CCCN1	67.1

----------
target: HDAC1 Recombinant (Homo sapiens, UniProt Q13547); construct: purchased BPS Bioscience Inc 50051; experiment: HDAC1 enzymatic activity assay with recombinant protein; type: biochemical; details: 5 nM HDAC1, 18 μM MAZ1600 substrate (3 × KM), 3 h incubation
Sequence (Q13547 whole entry): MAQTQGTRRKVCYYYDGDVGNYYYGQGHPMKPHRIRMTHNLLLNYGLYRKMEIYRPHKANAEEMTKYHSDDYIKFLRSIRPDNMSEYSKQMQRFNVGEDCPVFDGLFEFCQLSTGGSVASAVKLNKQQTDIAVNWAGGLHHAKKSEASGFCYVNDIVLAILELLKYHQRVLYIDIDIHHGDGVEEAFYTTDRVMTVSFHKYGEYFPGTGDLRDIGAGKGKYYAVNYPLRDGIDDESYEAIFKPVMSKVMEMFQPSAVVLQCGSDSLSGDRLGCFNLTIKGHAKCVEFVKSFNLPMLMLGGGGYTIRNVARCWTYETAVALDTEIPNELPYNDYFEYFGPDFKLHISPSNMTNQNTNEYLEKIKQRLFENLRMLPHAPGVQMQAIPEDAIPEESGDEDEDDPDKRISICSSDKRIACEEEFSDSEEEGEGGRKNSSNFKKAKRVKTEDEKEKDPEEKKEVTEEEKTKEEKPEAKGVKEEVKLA

compound	Kd
O=C(CCCCCCC(=O)Nc1ccc(CNC(=O)c2ccc(C(=O)O)c(C3=c4cc5c6c(c4Oc4c3cc3c7c4CCCN7CCCC3)CCC[N+]=6CCCC5)c2)cc1)NO [SAHA-NCT]	2 nM

----------
target: BRD4(BD2) (Homo sapiens, UniProt O60885); construct: validated for its applicability with individual recombinant bromodomains BRD4(BD1) and BRD4(BD2); test: TR-FRET saturation binding of JQ1-FITC, BRD4(BD2); conditions: 0.5 nM GST-BRD4(BD2), 2 nM CoraFluor-1-labeled anti-GST VHH; read-out: KD,app BRD4(BD2)

compound	Kd / nM
Cc1sc2c(c1C)C(c1ccc(Cl)cc1)=NC(CC(=O)NCCCOCCOCCOCCCNC(=S)Nc1ccc(-c3c4ccc(=O)cc-4oc4cc(O)ccc34)c(C(=O)O)c1)c1nnc(C)n1-2 (stereo not shown)	5.8

----------
target: PfcProRS (Plasmodium falciparum, UniProt Q8I5R7); construct: made in house; host or cells: SoluBL-21 E. coli; experiment: biochemical; type: binding; conditions: PfcProRS (KD [nM]) +proline, 100 μM proline
property: log10 Kd (log10 of the value in nM)

molecularString	log10 Kd
CC(C)(C)OC(=O)N1CCC[C@H]1C(=O)NC1CCN(C(=O)Nc2nccnc2C(=O)NC2Cc3ccccc3C2)CC1	3.30
CC(C)(C)OC(=O)N1CCC[C@H]1C(=O)NCC1CCN(C(=O)Nc2nccnc2C(=O)NC2Cc3ccccc3C2)CC1	0.73
CC(C)(C)OC(=O)NC1CCN(C(=O)Nc2nccnc2C(=O)NC2Cc3ccccc3C2)CC1	1.12
O=C(NC1Cc2ccccc2C1)c1nccnc1NC(=O)N1CCC(NC(=O)[C@@H]2CCCN2)CC1	2.82
O=C(NC1Cc2ccccc2C1)c1nccnc1NC(=O)N1CCC(CNC(=O)[C@@H]2CCCN2)CC1	1.56

----------
biological target: HDAC1-HaloTag (Homo sapiens, UniProt Q13547)
Sequence (Q13547 whole entry): as the sequence (Q13547 whole entry) above
property: Kd (nM)

compound	measuredResult
O=C(CCCCCCC(=O)Nc1ccc(CNC(=O)c2ccc(C(=O)O)c(C3=c4cc5c6c(c4Oc4c3cc3c7c4CCCN7CCCC3)CCC[N+]=6CCCC5)c2)cc1)NO [SAHA-NCT]	9

----------
biological target: HsProRS (Homo sapiens, UniProt P07814); construct: made in house; host or cells: SoluBL-21 E. coli; experiment: TR-FRET ProRS ligand displacement / saturation binding assay, HsProRS; conditions: substrate condition not given; read-out: HsProRS KD
property: Kd (nM)

compound	unitsLabel	inequalityOperator	measuredResult
NCCOCCOCCCCCCN(C[C@H]1O[C@@H](n2cnc3c(N)ncnc32)[C@H](O)[C@@H]1O)S(=O)(=O)NC(=O)[C@@H]1CCCN1 [MAT556]	nM	=	33.7
Nc1ncnc2c1ncn2[C@@H]1O[C@H](CNS(=O)(=O)NC(=O)[C@@H]2CCCN2)[C@@H](O)[C@H]1O [ProSNA]	nM	<	1

----------
tested on: P. falciparum Dd2-2D4; experiment: P. falciparum asexual blood stage growth assay, wild type; details: Plasmodium falciparum, DD2, read-out: ABS IC50
pIC50: −log10 of the molar value.

compound	subjectOfTest	pIC50
CC[C@H](C)[C@H](N)C(=O)NS(=O)(=O)NC[C@H]1O[C@@H](n2cnc3c(N)ncnc32)[C@H](O)[C@@H]1O [IleSNA]	P. falciparum Dd2-2D4	8.92

----------
Target: HsProRS (Homo sapiens)
Construct: made in house; host or cells: SoluBL-21 E. coli
Sequence (P07814 996-1512): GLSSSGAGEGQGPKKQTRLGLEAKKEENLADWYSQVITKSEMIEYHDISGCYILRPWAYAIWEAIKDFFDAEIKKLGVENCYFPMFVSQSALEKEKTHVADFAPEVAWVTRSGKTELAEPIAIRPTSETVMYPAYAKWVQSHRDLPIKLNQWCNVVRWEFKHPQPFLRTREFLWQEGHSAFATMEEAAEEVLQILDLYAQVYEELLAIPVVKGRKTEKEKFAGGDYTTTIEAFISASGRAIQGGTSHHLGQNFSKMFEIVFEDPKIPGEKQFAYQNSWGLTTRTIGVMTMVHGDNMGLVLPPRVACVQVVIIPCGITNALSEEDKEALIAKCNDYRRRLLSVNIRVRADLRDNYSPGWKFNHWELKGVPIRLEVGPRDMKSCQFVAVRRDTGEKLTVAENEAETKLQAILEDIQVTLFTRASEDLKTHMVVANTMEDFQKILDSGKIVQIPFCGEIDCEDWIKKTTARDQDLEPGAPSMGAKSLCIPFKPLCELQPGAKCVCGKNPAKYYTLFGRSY
Experiment: TR-FRET ProRS ligand displacement / saturation binding assay, HsProRS
pKd: −log10 of the molar value.

molecularString	pKd
CC(C)(C)OC(=O)N1CCC[C@H]1C(=O)NC1CCN(C(=O)Nc2nccnc2C(=O)NC2Cc3ccccc3C2)CC1	< 5.30

----------
test system: P. falciparum Dd2-2D4; assay: P. falciparum asexual blood stage growth assay, wild type; details: Plasmodium falciparum, DD2, 72 h, read-out: Dd2 (EC50 [nM]) wt

molecularString	EC50, nM
Nc1ncnc2c1ncn2[C@@H]1O[C@H](CNS(=O)(=O)NC(=O)[C@@H]2CCCN2)[C@@H](O)[C@H]1O	172
CC(C)(C)OC(=O)NC1CCN(C(=O)Nc2nccnc2C(=O)NC2Cc3ccccc3C2)CC1	90.6
O=C(NC1Cc2ccccc2C1)c1nccnc1NC(=O)N1CCC(CNC(=O)[C@@H]2CCCN2)CC1	249
CC(C)(C)OC(=O)N1CCC[C@H]1C(=O)NCC1CCN(C(=O)Nc2nccnc2C(=O)NC2Cc3ccccc3C2)CC1	63.2

----------
target: HDAC1 Recombinant (Homo sapiens, UniProt Q13547); construct: purchased BPS Bioscience Inc 50051; experiment: TR-FRET assay with recombinant HDAC1; format: binding; conditions: 5 nM HDAC1, 2.5 nM Tb-Anti-6xHis IgG, 20 nM SAHA-NCT, 3 h
pKd: −log10 of the molar value.

compound	subjectOfTest	pKd
O=C(CCCCCCC(=O)Nc1ccc(CNC(=O)c2ccc(C(=O)O)c(C3=c4cc5c6c(c4Oc4c3cc3c7c4CCCN7CCCC3)CCC[N+]=6CCCC5)c2)cc1)NO [SAHA-NCT]	HDAC1 Recombinant (Homo sapiens, UniProt Q13547)	8.05
